- System: JJN-3 cells
- Assay comment: Biological Assay C: antiproliferative activity on JJN-3 cells (CellTiter-Glo)
- Format: cell-based
- Condition info: Homo sapiens, 72 hr of treatment, averaged values
Outcome measure: EC50

>  <Compound>
CC(C)(O)C#Cc1cc2c(-c3cn[nH]c3)cn(C3CCN(CCF)CC3)c2cn1

>  <Measured value>
1620 nM

$$$$
>  <Compound>
CC(C)(O)C#Cc1cc2c(-c3cn[nH]c3)cn(C3CCC(CO)CC3)c2cn1 (stereo not shown)

>  <Measured value>
4170 nM

$$$$
>  <Compound>
CCn1cc(-c2c[nH]nc2N)c2cc(C#CC(C)(C)O)ncc21

>  <Measured value>
2370 nM

$$$$

Next, consider the following compound.
// sample "[2H]C([2H])([2H])C(O)(C#Cc1cc2c(-c3c[nH]nc3Cl)cn(C3CCN(C)CC3)c2c(C)n1)C([2H])([2H])[2H]" , its EC50 was 415 nM

----------
- System: JJN-3 cells
- Assay comment: Biological Assay C: antiproliferative activity on JJN-3 cells (CellTiter-Glo)
- Assay type: cell-based
- Condition info: Homo sapiens, 72 hr of treatment, averaged values
Outcome measure: pEC50
Hey, just a heads up that pEC50 is the negative log base 10 of the concentration in molar.

>  <Compound>
CC(C)(O)C#Cc1cc2c(-c3cn[nH]c3)cn(CCC(C)(C)O)c2cn1

>  <Outcome measure>
pEC50

>  <Measured value>
5.58

$$$$
>  <Compound>
CCn1cc(-c2cn[nH]c2)c2cc(C#CC(C)(O)C3CC3)ncc21 (single isomer, unassigned)

>  <Outcome measure>
pEC50

>  <Measured value>
5.89

$$$$
>  <Compound>
CC(C)(O)C#Cc1cc2c(-c3cn[nH]c3)cn(CC3CCOC3)c2cn1 (centres unmarked)

>  <Outcome measure>
pEC50

>  <Measured value>
5.40

$$$$

// pEC50 (JJN-3 cells) for "OC1(C#Cc2cc3c(-c4cn[nH]c4)c[nH]c3cn2)CCCC1" = 5.16

// pEC50 (JJN-3 cells) for CCCC(C)n1cc(-c2cn[nH]c2)c2cc(C#CC(C)(C)O)ncc21 (centres unmarked) = 6.07

// pEC50 (JJN-3 cells) for "CC(C)(O)C#Cc1cc2c(-c3cn[nH]c3)cn(CC3COC3)c2cn1" = 5.23

// pEC50 (JJN-3 cells) for "CC(C)(O)C#Cc1cc2c(-c3cn[nH]c3)cn(Cc3ccccc3)c2cn1" = 5.22

// pEC50 (JJN-3 cells) for "CC(C)n1cc(-c2cn[nH]c2)c2cc(C#CC(C)(C)O)ncc21" = 6.59

// pEC50 (JJN-3 cells) for "CCn1cc(-c2cn[nH]c2)c2cc(C#CC(C)(C)O)ncc21" = 6.28

// pEC50 (JJN-3 cells) for "CC(C)(O)C#Cc1cc2c(-c3cn[nH]c3)cn(CC(C)(C)O)c2cn1" = 5.85

----------
- Experimental target: Recombinant Human NF-kappaB-inducing Kinase (NIK/MAP3K14) (Homo sapiens (Human))
- Assay comment: Biological Assay A: inhibition of recombinant human NIK/MAP3K14 activity (MSD, MBP substrate)
- Condition info: 25 μM ATP, 10 nM NIK/MAP3K14, 1 h at 25° C.; averaged over all measurements on all batches; read-out: Biochemical (MSD MBP) IC50
Rule for this label: yes (1) means IC50 is less than 20 nM; no (0) means IC50 is at least 20 nM.

>  <Compound>
CC(C)(O)C#Cc1cc2c(-c3cn[nH]c3)cn(CCO)c2cn1

>  <Experimental target>
Recombinant Human NF-kappaB-inducing Kinase (NIK/MAP3K14) (Homo sapiens (Human))

>  <Label class>
no (0)

$$$$

Exercise: Does this compound meet the criterion IC50 < 20 nM? CC(O)(C#Cc1cc2c(-c3cn[nH]c3)c[nH]c2cn1)c1nccs1 (stereo not drawn)
Key: yes (1)

Exercise: Does this compound meet the criterion IC50 < 20 nM? "CC(C)(O)C#Cc1cc2c(-c3cn[nH]c3)cn(CCCO)c2cn1"
Key: yes (1)

Exercise: Does this compound meet the criterion IC50 < 20 nM? "CCn1cc(-c2c[nH]nc2C)c2cc(C#CC(C)(C)O)ncc21"
Key: no (0)

Exercise: Does this compound meet the criterion IC50 < 20 nM? "CC(C)(O)C#Cc1cc2c(-c3cn[nH]c3)cn(S(C)(=O)=O)c2cn1"
Key: yes (1)

Exercise: Does this compound meet the criterion IC50 < 20 nM? "OC1(C#Cc2cc3c(-c4cn[nH]c4)c[nH]c3cn2)CCCC1"
Key: yes (1)

Exercise: Does this compound meet the criterion IC50 < 20 nM? "CCC(CC)n1cc(-c2cn[nH]c2)c2cc(C#CC(C)(C)O)ncc21"
Key: no (0)

Exercise: Does this compound meet the criterion IC50 < 20 nM? "Cn1cc(-c2cn[nH]c2)c2cc(C#CC3(O)CCCC3)ncc21"
Key: no (0)

Exercise: Does this compound meet the criterion IC50 < 20 nM? "CN1CCC(n2cc(-c3cn[nH]c3)c3cc(C#CC(C)(C)O)ncc32)CC1"
Key: no (0)

----------
- Experimental target: Recombinant Human NF-kappaB-inducing Kinase (NIK/MAP3K14) (Homo sapiens (Human), UniProt Q99558)
- Sequence (Q99558 whole entry): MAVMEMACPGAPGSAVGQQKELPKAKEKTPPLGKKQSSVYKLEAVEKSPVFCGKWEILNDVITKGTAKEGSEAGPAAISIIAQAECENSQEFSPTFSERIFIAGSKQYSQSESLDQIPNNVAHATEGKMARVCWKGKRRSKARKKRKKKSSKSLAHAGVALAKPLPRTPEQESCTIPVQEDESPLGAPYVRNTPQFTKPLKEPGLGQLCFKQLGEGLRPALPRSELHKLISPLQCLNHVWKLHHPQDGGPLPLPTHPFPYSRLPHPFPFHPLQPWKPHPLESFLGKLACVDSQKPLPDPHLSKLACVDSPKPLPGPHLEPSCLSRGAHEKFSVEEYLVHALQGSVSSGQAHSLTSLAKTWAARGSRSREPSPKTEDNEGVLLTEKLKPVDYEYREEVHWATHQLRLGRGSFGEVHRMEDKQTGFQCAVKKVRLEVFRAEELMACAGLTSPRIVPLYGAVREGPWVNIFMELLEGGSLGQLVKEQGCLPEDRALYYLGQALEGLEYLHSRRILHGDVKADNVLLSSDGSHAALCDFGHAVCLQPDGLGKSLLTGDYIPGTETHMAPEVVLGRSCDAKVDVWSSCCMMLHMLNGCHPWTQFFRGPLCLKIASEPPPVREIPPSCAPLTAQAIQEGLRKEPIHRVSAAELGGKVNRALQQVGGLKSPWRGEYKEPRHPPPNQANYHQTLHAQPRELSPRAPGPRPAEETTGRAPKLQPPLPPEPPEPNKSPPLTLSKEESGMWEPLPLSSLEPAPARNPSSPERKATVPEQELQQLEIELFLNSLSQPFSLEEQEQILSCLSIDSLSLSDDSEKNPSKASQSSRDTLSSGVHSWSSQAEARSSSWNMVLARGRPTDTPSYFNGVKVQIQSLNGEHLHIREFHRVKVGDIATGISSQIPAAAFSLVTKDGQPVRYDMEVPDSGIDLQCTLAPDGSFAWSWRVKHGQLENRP
- Assay comment: Biological Assay A2: inhibition of auto-phosphorylation of recombinant human NIK/MAP3K14 (AlphaScreen)
- Format: biochemical
- Condition info: 25 microM ATP, 0.2 nM GST-tagged NIK/MAP3K14, 1 h at 25° C., averaged values, read-out: Alpha-Screen IC50
The reader will find reported log10 of IC50 values listed item by item below.
Each number you see is log10 of IC50, and the unit inside the log is µM.

>  <Query smiles>
CN1CCC(n2cc(-c3c[nH]nc3Cl)c3cc(C#CC(C)(C)O)ncc32)CC1

>  <log10 of IC50>
-1.10

$$$$
>  <Query smiles>
COCCCn1cc(-c2cn[nH]c2)c2cc(C#CC(C)(C)O)ncc21

>  <log10 of IC50>
-1.39

$$$$
>  <Query smiles>
Cn1cc(-c2cn[nH]c2)c2cc(C#CC3(O)CCCC3)ncc21

>  <log10 of IC50>
-2.15

$$$$
>  <Query smiles>
CCn1cc(-c2c[nH]nc2N)c2cc(C#CC(C)(C)O)ncc21

>  <log10 of IC50>
-1.55

$$$$

Next, consider the following compound.
// sample "CC(C)(O)C#Cc1cc2c(-c3cn[nH]c3)cn(C3CCN(CCF)CC3)c2cn1" , its log10 of IC50 was -1.20
